These measurements were taken from PubChem BioAssay (NCI).

# System: SNB-75 CNS
# assay_overview: NCI-60 one-dose screen, 48 h
# assay_context: 10 µM unless noted
This is part of a sample that, as a whole, favours compounds with a hit. Of some 83,000 tested, about 20% had one in any assay. Active and inactive are the calls of the source. Rule for the calls: active = growth percent below 10; inactive = the rest.
A correct response names exactly one class from active, inactive

Query: // outcome(item) with item = CC1=CCC2C1CC=C(C)C(CC[C@H]1[C@@](C)(O)CCC3OC(C)(C)[C@H](OC(=O)c4ccccc4)CC[C@@]31C)C2(C)C (stereo not given in full)
Reply: inactive

Query: // outcome(item) with item = Nc1ncnc2c1N=C(c1ccc3c(c1)OCO3)CC(c1ccc(Cl)cc1)N2 (stereo not given)
Reply: inactive

Query: // outcome(item) with item = `COC(=O)[C@H](Cc1cn(C)cn1)NC(=O)[C@H](CC(C)C)NC(=O)Nc1cc(C(F)(F)F)cc(C(F)(F)F)c1`
Reply: active

Query: // outcome(item) with item = CC(C)c1ccc2c(c1)CCC1C2CCCC1(C)NCc1ccccc1 (stereo not given)
Reply: inactive

Query: // outcome(item) with item = COc1cc(CN(c2ccc(C)cc2)C2OC(=O)c3ccccc32)cc(OC)c1OC (stereo not given)
Reply: active

Query: // outcome(item) with item = `CCOCCNc1ccc(S(=O)(=O)c2ccc(N)cc2)cc1N`
Reply: inactive

Query: // outcome(item) with item = `Cc1cccc(/C=N/n2c(-c3ccc(Cl)cc3)nc3c(Br)cc(Br)cc3c2=O)c1`
Reply: inactive

Query: // outcome(item) with item = `CCOC(=O)Cc1cc(Br)c(OCc2ccccc2)c(Br)c1`
Reply: inactive

Query: // outcome(item) with item = `O=C(CC(=O)C(F)(F)C(F)(F)C(F)(F)F)c1cc2ccccc2o1`
Reply: inactive

Query: // outcome(item) with item = `CC(=O)Oc1ccccc1C(=O)Nc1ncc([N+](=O)[O-])s1`
Reply: inactive

----------
# System: SK-OV-3 ovarian
# assay_overview: NCI-60 one-dose screen, 48 h
# assay_context: 10 µM unless noted
Compounds without any hit were thinned out: in the full panel of roughly 83,000, 20% have a hit. The source made the active and inactive calls. How the source made its calls: active means growth percent below 10; inactive means the rest.
A correct response names exactly one class from Yes (active), No (inactive)

Query: // outcome(item) with item = `O=C(c1ccc(OCCN2CCCCC2)cc1)c1c(-c2ccc(O)cc2)sc2cc(O)ccc12`
Reply: No

Query: // outcome(item) with item = `O=C(CCl)Nc1cc(O)c2c(c1)C(=O)c1cccc(O)c1C2=O`
Reply: No

Query: // outcome(item) with item = `CCC(=O)OCc1ccc(OC)cc1`
Reply: No

Query: // outcome(item) with item = `O=S(=O)(Cc1ccc(Cl)cc1Cl)c1ccc(Cl)cc1`
Reply: Yes

Query: // outcome(item) with item = `CCOC(=O)c1cc(C(=O)OCC)c(C)nc1C`
Reply: No

Query: // outcome(item) with item = `COc1ccc2nc3ccccc3c(NCc3ccc(Cl)cc3)c2c1`
Reply: No

Query: // outcome(item) with item = `C[N+](C)(C)CC(=O)N/N=C\c1ccco1`
Reply: No

----------
# Test system: SW-620 colon
# assay_overview: NCI-60 one-dose screen, 48 h
# assay_context: 10 µM unless noted
Compounds without any hit were thinned out: in the full panel of roughly 83,000, 20% have a hit. Calls of active or inactive are those of the source. The calls were made as follows: active = growth percent below 10; inactive = the rest.
A correct response names exactly one class from 1 (yes) = active, 0 (no) = inactive

Query: // outcome(item) with item = `C#Cc1cccc(Nc2nc3cc([N+](=O)[O-])ccc3nc2Nc2ccc(O)cc2)c1`
Reply: 1 (yes)

Query: // outcome(item) with item = `O=C(N/N=C/c1ccc([N+](=O)[O-])cc1)c1ccccc1Nc1ccnc(C(F)(F)F)c1`
Reply: 1 (yes)

Query: // outcome(item) with item = COc1cc(C2C(C#N)=C(N)Oc3cc4c(cc32)OCO4)cc2c1OCO2 (stereo not drawn)
Reply: 0 (no)

Query: // outcome(item) with item = `O=C1NN(C(=O)c2ccccc2)C(c2ccc(Cl)c(Cl)c2)=C/C1=C\c1ccccc1[N+](=O)[O-]`
Reply: 0 (no)

Query: // outcome(item) with item = `COc1cc(Cl)cc(-c2nn(C(=O)NCCN3CCOCC3)cc2-c2ccncc2)c1`
Reply: 0 (no)

Query: // outcome(item) with item = `CC(C)(C)OC[C@@H]1N=C(c2ccc(Br)cc2)Nc2nc3ccccn3c2C1=O`
Reply: 0 (no)

Query: // outcome(item) with item = `O=C(N/N=C/c1ccccc1O)c1ccncc1`
Reply: 0 (no)

Query: // outcome(item) with item = `CCOc1cc(/C=N\NC(=O)C[N+](C)(C)C)ccc1O`
Reply: 0 (no)

Query: // outcome(item) with item = CC[C@]1(O)C[C@H]2CN(CCc3c([nH]c4ccccc34)C(C(=O)OC)(c3cc4c(cc3OC)N(C)[C@H]3[C@@](O)(C(=O)OC)[C@H](OC(C)=O)[C@]5(CC)[C@@H]6C[C@@H]6CN6CC[C@]43[C@@H]65)C2)C1 (stereo partly drawn)
Reply: 0 (no)

Query: // outcome(item) with item = `COc1cccc(/C(C)=N/NC(=O)CSc2nc3ccccc3c(=O)n2CCc2ccc(S(N)(=O)=O)cc2)c1`
Reply: 0 (no)

Query: // outcome(item) with item = CCOC(=O)C1C(=O)C=C(c2cc(OC)c(OC)c(OC)c2)CC1c1sc(N(C)Cc2ccccc2)nc1Cl (stereo not drawn)
Reply: 0 (no)

Query: // outcome(item) with item = CC1CCCN(CCCCOc2ccc(-c3ccc(C#N)cc3)cc2)C1 (stereo not drawn)
Reply: 0 (no)

Query: // outcome(item) with item = `c1ccc2c(N=NSc3ncnc4nc[nH]c34)c3ccccc3nc2c1`
Reply: 1 (yes)

Query: // outcome(item) with item = `CSc1ccc(/C=C2\C=C(CC(=O)NCc3ccc(C(=O)c4ccccc4)cc3)c3cc(F)ccc32)cc1`
Reply: 1 (yes)

Query: // outcome(item) with item = `Clc1cccc(CNc2c3ccccc3nc3ccccc23)c1`
Reply: 0 (no)

Query: // outcome(item) with item = `ClCCn1cnc2c(SCc3ccccc3Cl)ncnc21`
Reply: 0 (no)

Query: // outcome(item) with item = `Cc1cc(O)c2cc3c(O)c(O)ccc3cc2c1`
Reply: 0 (no)

Query: // outcome(item) with item = `CCN(CC)C(=O)O/N=C(/C)c1ccccc1`
Reply: 0 (no)

Query: // outcome(item) with item = `O=C(Nc1cccc(-n2ccc3c(NC(=O)c4ccccc4)nccc32)c1)c1ccc(N2CCOCC2)c(C(F)(F)F)c1`
Reply: 0 (no)

Query: // outcome(item) with item = CCSCC1CC(O)(c2ccccc2)C(c2ccccc2)C(c2ccc(F)cc2)O1 (stereo not drawn)
Reply: 1 (yes)

Query: // outcome(item) with item = `COc1ccc(-c2cc(C(=O)Nc3ccc(C)cc3)nc3[nH]c(=O)sc23)cc1`
Reply: 0 (no)

Query: // outcome(item) with item = `Nc1nc(N)c2cc(NCc3ccc(Cl)c(Cl)c3)ccc2n1`
Reply: 1 (yes)

Query: // outcome(item) with item = `COc1cc(/C=C/c2cc(/C=C/c3ccc(O)c(OC)c3)n(C(=O)Nc3ccc(F)c(Cl)c3)n2)ccc1O`
Reply: 1 (yes)

Query: // outcome(item) with item = C=CCOC(=O)C1=C(C)NC2=C(C(=O)CCC2)C1c1ccc(F)cc1 (stereo not drawn)
Reply: 0 (no)

Query: // outcome(item) with item = `CC(=O)O[C@H]1CC[C@]2(C)[C@H]3CC=C4[C@@H]5CC(C)(C)CC[C@]5(C(=O)OCC(COC(=O)C(Cl)Cl)(COC(=O)C(Cl)Cl)NC(=O)C(Cl)Cl)CC[C@@]4(C)[C@]3(C)CC[C@H]2C1(C)C`
Reply: 0 (no)

Query: // outcome(item) with item = `COC(=O)c1ccc2c(c1)nc(-c1cc3ccccc3[nH]c1=O)n2-c1cc(C(C)(C)C)[nH]n1`
Reply: 0 (no)

Query: // outcome(item) with item = CCOC(=O)C1OC2(CCCC2)OC1C(=O)OCC (stereo not drawn)
Reply: 0 (no)

Query: // outcome(item) with item = `COc1cc2ncnc(Nc3ccc(S(=O)(=O)Nc4nccs4)cc3)c2cc1OCCCN1CCOCC1`
Reply: 0 (no)

Query: // outcome(item) with item = `O=C(/C=C/c1ccc(F)cc1)N1CCN(C(=O)/C=C/c2ccc(C(F)(F)F)cc2)CC1`
Reply: 0 (no)

Query: // outcome(item) with item = `CCCCCCCCCCCCCCCC1=NCCN1`
Reply: 1 (yes)

Query: // outcome(item) with item = `COc1cnc2c(c1)C(=O)c1c-2n(CCCN2CCCC2)c(=O)c2cc(Cl)ccc12`
Reply: 1 (yes)

Query: // outcome(item) with item = `COc1ccc(Cl)cc1Nc1nc(C(F)(F)F)ccc1C(=O)NN`
Reply: 0 (no)

Query: // outcome(item) with item = CCCCCCCCOC(=O)C(C)OC(=O)OCCOCCOC(=O)OC(C)C(=O)OCCCCCCCC (stereo not drawn)
Reply: 0 (no)

Query: // outcome(item) with item = `CC(C)(C)c1ccc(OC(=O)Nc2ccccc2)cc1`
Reply: 0 (no)

Query: // outcome(item) with item = `O=P(O)(O)C(O)(Cc1cccnc1)P(=O)(O)O`
Reply: 0 (no)

Query: // outcome(item) with item = `COc1cnc2c(c1)C(=O)c1c-2n(CCCN2CCNCC2)c(=O)c2cc(Cl)ccc12`
Reply: 1 (yes)

Query: // outcome(item) with item = CC(C)=CC[C@@H]1CC2(CC=C(C)C)C(=O)C(OC3(C(=O)c4ccccc4)C(=O)C4(CC=C(C)C)C[C@@H](CC=C(C)C)C(C)(C)C(CC=C(C)C)(C4=O)C3=O)(C(=O)c3ccccc3)C(=O)C(CC=C(C)C)(C2=O)C1(C)C (stereo partly drawn)
Reply: 1 (yes)

Query: // outcome(item) with item = CCN1C(=O)N(CC)C2C1NN=c1s/c(=C\c3ccco3)c(=O)n12 (stereo not drawn)
Reply: 0 (no)
